Listed molecules paired with reported IC50
- EXPERIMENTAL SYSTEM: intracellular phosphorylation of EGFR in NCI-H1975 cell line that harbors the EGFR L858R T790M mutations (Homo sapiens, UniProt P00533, L858R/T790M)
- Construct: NCI-H1975 cell line that harbors the EGFR L858R T790M mutations (ATCC, CRL-5908); host or cells: NCI-H1975
- Sequence (P00533 25-1210 T790M/L858R): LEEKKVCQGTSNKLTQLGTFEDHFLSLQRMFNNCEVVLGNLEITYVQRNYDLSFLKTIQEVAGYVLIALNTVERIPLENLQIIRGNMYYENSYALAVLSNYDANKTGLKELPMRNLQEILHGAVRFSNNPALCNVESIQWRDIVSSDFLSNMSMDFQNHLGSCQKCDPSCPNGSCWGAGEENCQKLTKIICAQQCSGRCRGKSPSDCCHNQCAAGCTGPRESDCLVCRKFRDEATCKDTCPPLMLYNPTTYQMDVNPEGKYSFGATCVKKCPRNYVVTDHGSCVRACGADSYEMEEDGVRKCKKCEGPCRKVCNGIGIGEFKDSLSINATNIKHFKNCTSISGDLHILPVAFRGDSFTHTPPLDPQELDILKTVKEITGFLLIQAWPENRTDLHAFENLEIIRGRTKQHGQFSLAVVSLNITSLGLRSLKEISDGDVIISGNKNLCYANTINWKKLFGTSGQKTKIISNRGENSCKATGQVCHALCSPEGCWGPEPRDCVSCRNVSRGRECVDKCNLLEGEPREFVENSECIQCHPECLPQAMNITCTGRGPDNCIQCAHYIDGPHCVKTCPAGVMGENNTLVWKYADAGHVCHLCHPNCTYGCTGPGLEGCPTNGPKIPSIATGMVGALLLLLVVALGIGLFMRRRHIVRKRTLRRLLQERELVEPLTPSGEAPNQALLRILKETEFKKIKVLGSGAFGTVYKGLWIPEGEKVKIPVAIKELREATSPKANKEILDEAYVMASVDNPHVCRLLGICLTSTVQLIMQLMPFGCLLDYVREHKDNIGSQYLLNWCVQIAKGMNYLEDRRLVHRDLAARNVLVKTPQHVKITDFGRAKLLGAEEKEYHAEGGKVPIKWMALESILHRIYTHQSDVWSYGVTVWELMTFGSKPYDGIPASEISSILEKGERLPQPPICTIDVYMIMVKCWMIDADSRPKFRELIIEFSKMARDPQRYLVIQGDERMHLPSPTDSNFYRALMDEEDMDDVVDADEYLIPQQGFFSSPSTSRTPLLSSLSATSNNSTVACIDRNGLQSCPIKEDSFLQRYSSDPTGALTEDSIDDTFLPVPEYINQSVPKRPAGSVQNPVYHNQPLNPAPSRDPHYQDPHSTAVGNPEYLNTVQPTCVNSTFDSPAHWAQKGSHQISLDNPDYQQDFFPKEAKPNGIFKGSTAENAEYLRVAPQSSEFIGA
- PROTOCOL DESCRIPTION: NCI-H1975 pEGFR AlphaLISA assay
- Assay type: cell-based
- TEST CONDITIONS: Ext pEGFR H1975 GMean IC50 (nM) Protocol: @Pharmaron AlphaLISA (Num), NCI-H1975 cells (EGFR L858R T790M), p-EGFR (Tyr1068), 4-5 hours incubation

molecule=COP(=O)(CC1CN(c2ncc(C(C)C)c3cc(Nc4ccnc(N5CC[C@@H](O)[C@@](C)(F)C5)n4)ncc23)C1)OC experimental_endpoint=IC50 result_value="20 to 30 nM"

Please examine the following record next.
# IC50 lookup, item C[C@@H]1CCN1c1ncc(-c2cccnc2F)c2cc(Nc3ccnc(N4CC[C@@H](O)[C@@H](F)C4)n3)ncc12 (single isomer, unassigned) 30 to 50 nM
